- Tested on: Staphylococcus aureus
- assay.info: Antibacterial activity against methicillin-resistant Staphylococcus aureus MSC03571
- Assay type: functional
measured.property: MIC (µg/mL)
Express the result in µg/mL but write the number alone.

Qu. Look at this molecule and give its reported MIC. CNC[C@@H]1CC[C@@H](N)[C@@H](O[C@H]2[C@@H](O)[C@@H](O[C@H]3O[C@H](CO)[C@H](O)[C@H](N)[C@H]3O)[C@H](NC(=O)[C@@H](O)CCN)C[C@@H]2N)O1
Ans. 1

Qu. Look at this molecule and give its reported MIC. NCC[C@H](O)C(=O)N[C@@H]1C[C@H](N)[C@@H](O[C@H]2O[C@H](CN)CC[C@H]2N)[C@@H](F)[C@H]1O[C@H]1O[C@H](CO)[C@H](O)[C@H](N)[C@H]1O
Ans. 2

Qu. Look at this molecule and give its reported MIC. [N-]=[N+]=N[C@H]1[C@@H](O[C@H]2O[C@H](CO)[C@H](O)[C@H](N)[C@H]2O)[C@H](NC(=O)[C@@H](O)CCN)C[C@H](N)[C@H]1O[C@H]1O[C@H](CN)CC[C@H]1N
Ans. 4

Qu. Look at this molecule and give its reported MIC. NCC[C@H](O)C(=O)N[C@@H]1C[C@H](N)[C@@H](O[C@H]2O[C@H](CN)CC[C@H]2N)[C@@H](O)[C@H]1O[C@H]1O[C@H](CO)[C@H](O)[C@H](N)[C@H]1O
Ans. 1

Qu. Look at this molecule and give its reported MIC. NCC[C@H](O)C(=O)N[C@@H]1C[C@H](N)[C@@H](O[C@H]2O[C@H](CN)CC[C@H]2N)[C@@H](N)[C@H]1O[C@H]1O[C@H](CO)[C@H](O)[C@H](N)[C@H]1O
Ans. 4

Qu. Look at this molecule and give its reported MIC. NCC[C@H](O)C(=O)N[C@@H]1C[C@H](N)[C@@H](O[C@H]2O[C@H](CN)CC[C@H]2N)[C@H](O)[C@H]1O[C@H]1O[C@H](CO)[C@H](O)[C@H](N)[C@H]1O
Ans. 16

Qu. Look at this molecule and give its reported MIC. NCC[C@H](O)C(=O)N[C@@H]1C[C@H](N)[C@@H](O[C@H]2O[C@H](CN)CC[C@H]2N)[C@H](O)[C@H]1O[C@H]1O[C@H](CO)[C@@H](O)[C@H](N)[C@H]1O [ARBEKACIN]
Ans. 16

Qu. Look at this molecule and give its reported MIC. [N-]=[N+]=N[C@@H]1[C@H](N)[C@@H](O)[C@@H](O[C@@H]2[C@@H](O)[C@H](O[C@H]3O[C@H](CN)CC[C@H]3N)[C@@H](N)C[C@H]2NC(=O)[C@@H](O)CCN)O[C@@H]1CO
Ans. 128

Qu. Look at this molecule and give its reported MIC. NCC[C@H](O)C(=O)N[C@@H]1C[C@H](N)[C@@H](O[C@H]2O[C@H](CN)CC[C@H]2N)[C@H](O)[C@H]1O[C@H]1O[C@@H](CO)[C@@H](O)[C@H](N)[C@H]1O
Ans. 2

Qu. Look at this molecule and give its reported MIC. NCC[C@H](O)C(=O)N[C@@H]1C[C@H](N)[C@@H](O[C@H]2O[C@H](CN)CC[C@H]2N)[C@H](O)[C@H]1O[C@H]1O[C@H](CO)C[C@H](N)[C@H]1O
Ans. 64

Qu. Look at this molecule and give its reported MIC. NCC[C@H](O)C(=O)N[C@@H]1C[C@H](N)[C@@H](O[C@H]2O[C@H](CN)CC[C@H]2N)[C@@H](Cl)[C@H]1O[C@H]1O[C@H](CO)[C@H](O)[C@H](N)[C@H]1O
Ans. 2
